System: SR
assay.details: NCI human tumor cell panel: SR (Leukemia)
Assay type: cell-based
assay.conditions: read-out: Log10 TGI (converted)
assay.readout: IC (TGI)

# compound, IC (TGI)
rows = [
    ("OCc1ccc(-c2ccc(-c3ccc(CO)s3)[se]2)s1 [compound 675343]", "> 100 µM"),
    ("OCc1ccc(-c2ccc(-c3ccc(CO)[se]3)[se]2)[se]1 [compound 675247]", "> 100 µM"),
]

OCc1ccc(-c2ccc(-c3ccc(CO)[se]3)s2)[se]1 [compound 676632] has a reported IC (TGI) of > 100 µM
